# Lookup of reported phosphorylation enrichment keyed by entry
- target or test system: FGFR3 (UniProt P22607)
- Sequence (P22607 whole entry, looked up): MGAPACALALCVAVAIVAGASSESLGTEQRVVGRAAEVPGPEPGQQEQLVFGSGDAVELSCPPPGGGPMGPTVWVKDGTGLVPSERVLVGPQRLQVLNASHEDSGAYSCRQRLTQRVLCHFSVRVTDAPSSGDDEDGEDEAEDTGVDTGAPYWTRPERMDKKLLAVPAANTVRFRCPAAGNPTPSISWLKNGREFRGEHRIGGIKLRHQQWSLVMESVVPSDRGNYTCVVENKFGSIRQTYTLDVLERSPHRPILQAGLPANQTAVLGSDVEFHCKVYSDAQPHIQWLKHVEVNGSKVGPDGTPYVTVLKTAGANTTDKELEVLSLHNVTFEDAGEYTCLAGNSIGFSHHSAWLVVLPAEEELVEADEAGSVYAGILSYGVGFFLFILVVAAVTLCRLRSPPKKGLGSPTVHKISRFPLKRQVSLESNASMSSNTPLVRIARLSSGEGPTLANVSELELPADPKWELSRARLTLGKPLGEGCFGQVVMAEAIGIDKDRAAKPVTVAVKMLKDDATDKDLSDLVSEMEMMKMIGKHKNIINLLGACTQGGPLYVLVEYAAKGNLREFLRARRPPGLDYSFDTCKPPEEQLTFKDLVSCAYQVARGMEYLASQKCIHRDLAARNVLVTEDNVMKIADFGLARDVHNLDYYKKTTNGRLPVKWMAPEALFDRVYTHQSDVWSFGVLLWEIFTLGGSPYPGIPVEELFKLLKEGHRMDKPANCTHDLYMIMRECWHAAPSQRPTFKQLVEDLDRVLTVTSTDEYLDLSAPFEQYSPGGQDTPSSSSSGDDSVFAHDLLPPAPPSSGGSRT
- assay info: phosphorylation enrichment, bacterial display (enrichment ratio); higher = better substrate or ligand; peptides without Tyr show the background;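 further: 11-residue human phosphosite peptides and single-mutation variants displayed on the E. coli surface, counted by deep sequencing, each peptide's frequency after selection divided by its frequency in the unselected input library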;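 further: frequency after pTyr selection over input frequency; kinase dosed for 20-30% of maximal phosphorylation in three min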
value type: phosphorylation enrichment

1. RGESFYQDTMN [RARS_Y338_R341T]    0.888
2. RLLCEYQELMN [KRT75_Y434_R432C]    1.6
3. SAASGYSDVTD [DTX2_Y425_T421A]    0.569
4. SVVVPYERPEV [TP53_Y220_P222R]    0.627
5. IDSTPYGQWYE [RPS8_Y109_R110G]    0.701
6. SPFAVYRFFTF [RPGRIP1_Y826_YF]    0.798
7. KKRRSYGNSSD [SELENOK_Y52]    0.395
8. EFISEHCGEII [EZH2_Y641_Y641H]    0.722
9. GYGGGYGGVLT [KRT19_Y65_A60G]    0.511
10. DDLEVYLKHPL [SACS_Y3477_L3481P]    0.735
11. PANMVYSTVEI [SLAMF7_Y304_T302M]    2.26
12. RAMPVYEKAEH [TP63_Y231_K232E]    0.545
13. SPPPAFTPMSG [ERBB4_Y1056_Y1056F]    0.465
